System: MS2 coat protein
Assay: apparent KD of MS2 coat protein; designed switch direction (-1 OFF switch, 1 ON switch): -1; higher = weaker reporter binding
Conditions: input ligand: none
measuredProperty: apparent KD of MS2 coat protein (nM)
Answers are plain numbers, in nM.

Example results:
Input: So what's the measured apparent KD of MS2 coat protein for this one? UACAUGAGGAUCACCCAUGUUUUGUCGUGUAUGGUAUUUAUCUAGGAUAUCAAUUUGAUUAUUUAUGAGAAGGAGAAUAUUAAU [JMF's solution 65] (Eterna round: R96, puzzle: Exclusion NG 3)
Output: 39.1

Input: Next: GCACGAAGUGUAGGAUAUCUGUGCGAUUAGCUCAGAGAAGGACACAUGAGGAUCACCCAUGUGUUCCAAUCACAAAAUACGUGC [Eli exng1 - 060] (Eterna round: R96, puzzle: Exclusion NG 1)
Output: 11.9

// moving on: another record for apparent KD of MS2 coat protein
Input: Entry ACGGUGGUCCGAGAACAUGAGGAUCACCCAUGUGACAAAACCAAGGAUAUAGAAGGACCGCCCGACUAGAAGGUGGAAAGAAAA [Aresonen] (Eterna round: R96, puzzle: Exclusion NG 3) : reported apparent KD of MS2 coat protein = ?
Output: 117
